Target or system: FLT-3 kinase (Homo sapiens)
Construct: human FLT-3 (Arg571-Ser993); GST (N); purchased Cell Signaling Technology HTScan FLT-3 Kinase Assay Kit; host or cells: baculovirus expression system
Sequence (P36888 571-993): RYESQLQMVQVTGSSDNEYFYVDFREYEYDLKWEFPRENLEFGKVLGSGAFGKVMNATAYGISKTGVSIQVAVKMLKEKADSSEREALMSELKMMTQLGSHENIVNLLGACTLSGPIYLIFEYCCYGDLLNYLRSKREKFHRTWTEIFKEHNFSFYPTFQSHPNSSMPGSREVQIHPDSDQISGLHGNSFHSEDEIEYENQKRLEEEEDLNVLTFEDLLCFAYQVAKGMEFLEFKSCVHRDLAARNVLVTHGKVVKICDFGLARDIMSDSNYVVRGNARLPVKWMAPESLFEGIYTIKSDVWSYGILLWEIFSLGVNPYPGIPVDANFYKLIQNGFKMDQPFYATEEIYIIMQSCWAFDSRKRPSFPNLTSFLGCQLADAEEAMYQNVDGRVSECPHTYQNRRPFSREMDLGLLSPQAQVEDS
Experiment: FLT-3 kinase DELFIA assay (HTScan FLT-3 Kinase Assay Kit)
Type: biochemical
Condition description: 1 uM compound, 20 uM ATP
Quantity name: inhibition at 1 µM (%)

These recorded examples may help you get a feel for the data.
Compound	Target or system	inhibition at 1 µM [%]
O=C(O)c1ccc2[nH]c(-c3c4cccccc-4[nH]c3=O)nc2c1	FLT-3 kinase (Homo sapiens)	8.7
Nc1ccc2[nH]c(-c3c4cccccc-4[nH]c3=O)nc2c1	FLT-3 kinase (Homo sapiens)	45.1
O=c1[nH]c2cccccc-2c1-c1cn2ccccc2n1	FLT-3 kinase (Homo sapiens)	19.1

[A] O=c1[nH]c2cccccc-2c1-c1nc2cc(N3CCNCC3)ccc2[nH]1
[B] C[N+]1([O-])CC[N+]([O-])(c2ccc3[nH]c(-c4c5cccccc-5[nH]c4=O)nc3c2)CC1 (centres unmarked)
Prompt: For the two items A and B , which reports the higher inhibition at 1 µM value? Reply with the label of the item you choose.
Completion: A

Origin of measurements: patent US8492374B2
